# System: wild oat (Avena fatua)
# PROTOCOL_SUMMARY: Test B pre-/postemergence plant response
# Format: in vivo
# EXPERIMENTAL_PARAMETERS: Preemergence, 31 g ai/ha; 0 to 100 scale, 0 no effect, 100 complete control
# Description: […] Plant species in the flooded paddy test consisted of rice (Oryza sativa), umbrella sedge (Cyperus difformis), ducksalad (Heteranthera limosa) and barnyardgrass (Echinochloa crus-galli) grown to the 2-leaf stage for testing. […] Treated plants and controls were maintained in a greenhouse for 13 to 15 days, after which time all species were compared to controls and visually evaluated. […]
OUTCOME_MEASURE: Plant response rating, Oat, Wild
Just the number.

Could you please provide reported Plant response rating, Oat, Wild for Cc1cc(-c2ccc(Cl)cc2)nn1-c1c(OS(C)(=O)=O)cnn(C)c1=O [Compound 36] ? Thanks!
90

For CCc1cc(-c2ccc(Cl)cc2)nn1-c1c(OS(C)(=O)=O)cnn(C)c1=O [Compound 39] , write its Plant response rating, Oat, Wild.
90

Hello, please tell me recorded Plant response rating, Oat, Wild for this one: Cc1cc(-c2ccc(C(F)(F)F)cc2)nn1-c1c(OC(=O)C(C)(C)C)cnn(C)c1=O [Compound 2]
0

Complete the entry with Plant response rating, Oat, Wild for Cn1ncc(O)c(-c2nn(-c3ccc(Cl)cc3)cc2Cl)c1=O [Compound 28]
70
